# Assay comment: Viability qHTS for spleen associated tyrosine kinase inhibitor (SYKi) drug resistant MV4-11 cells (AID 1963824); note: nearly all actives have a fitted effect of over 35% in size
# Assay setup: SYKi-resistant MV4-11 viability, CellTiter-Glo, 72 h; series mostly up to 45 µM
Inconclusive results are not listed. Calls of active or inactive are those of the source. Calls come from the whole dose curve; as a rule, active = well fitted cell-killing curve with a large enough effect; inconclusive = small, poorly fitted or top-dose-only effect, or effect the other way; inactive = no such curve, though single readings can be large or run the other way.
Write down one outcome, taken from TRUE = active, FALSE = inactive

Answered cases to consult:
COc1cc2c(cc1OC)[C@@H]1[C@H](O)[C@@H](OC)C=C3CCN(C2)[C@H]31 = TRUE
CN1CCC(c2c(O)cc(O)c3c(=O)cc(-c4ccccc4Cl)oc23)C(O)C1 (stereo not drawn) = TRUE
O=C([O-])C[O-].[Pt+2] = FALSE
CC(C)C[C@@H]1NC(=O)[C@@H]2C[C@@]34C[C@@H]5[C@@]6(C)CCCC(C)(C)C6CC[C@@]5(C)N(c5ccccc53)[C@H]4N2C1=O (stereo partly drawn) = TRUE
C1=CC2C3C=CC(C3)C2C1 (stereo not drawn) = FALSE
c1cc(OCCCN2CCCCC2)ccc1CN1CCCCC1 = FALSE
O=C(O)CCCC[C@@H]1SC[C@@H]2NC(=O)N[C@@H]21 = FALSE
NC(=O)c1ccc(OCC2NC(=O)C3CCCN3C2=O)cc1 (stereo not drawn) = FALSE

**Query** What is the recorded call for this compound in the test? `C/C(=C\CCC(C)(C)O)CCO[C@@H]1O[C@H](CO[C@@H]2O[C@@H](C)[C@H](O)[C@@H](O)[C@H]2O)[C@@H](O)[C@H](O)[C@H]1O`
**Result** FALSE

**Query** Could you kindly confirm the outcome this assay logged for `COC(=O)C1=CO[C@@H](O[C@@H]2O[C@H](CO)[C@@H](O)[C@H](O)[C@H]2O)[C@@H]2C(CO)=CC[C@H]12` ?
**Result** FALSE

**Query** Hi team, can someone confirm the assay call for `CC[C@@H](C)[C@H](NC(=O)[C@H](CC1CCCCC1)NC(=O)c1ccno1)C(=O)N1CCC2(CCc3ccccc32)CC1` ?
**Result** TRUE

**Query** I'd appreciate the recorded outcome for `COC(=O)c1ccnc(-c2cc(C(=O)Nc3ccc(C4(N)CC4)cc3)ccn2)c1` from this test.
**Result** FALSE

---

# Assay comment: Cellular viability qHTS for adrenocortical cancer (ACC) cell line SW-13 (AID 1963989);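 note: cells grown in serum-free medium with ITS supplement; % is set by controls: 0 for no effect and ±100 for the full control effect; nearly all actives have a fitted effect of over 65% in size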
# Assay setup: SW-13 ACC cells viability, CellTiter-Glo, 48 h; active compounds read low
Inconclusive results are not listed. Activity calls are given as the source filed them. Calls come from the whole dose curve; as a rule, active = well fitted cell-killing curve with a large enough effect; inconclusive = small, poorly fitted or top-dose-only effect; inactive = flat fitted curve, though single readings scatter.
Quantity kind: activity (max response)

These solved cases illustrate the format of a correct answer.
CC1c2cccc(O)c2C(O)=C2C(=O)C3(O)C(O)=C(C(N)=O)C(=O)C(N(C)C)C3C(O)C21 (stereo not given) = 8.67% (inactive)
Cc1cc(O)c2c(O)c3c(O)cccc3cc2c1 = -2.49% (inactive)
C[C@]12CC[C@H](O)CC1=CC[C@@H]1[C@@H]2CC[C@]2(C)C(c3cccnc3)=CC[C@@H]12 = 2.71% (inactive)

**Query** Name the reported activity (max response) value associated with the compound `CCCCCCCCCCCC(=O)[O][Sn]([CH2]CCC)([CH2]CCC)[O]C(=O)CCCCCCCCCCC`
**Result** 2.55% (inactive)

**Query** Give the measured activity (max response) of `CC(=O)[C@@]1(O)CC[C@H]2[C@@H]3C[C@H](C)C4=CC(=O)C=C[C@]4(C)[C@@]3(F)[C@@H](O)C[C@@]21C` .
**Result** 3.6% (inactive)

**Query** I would be grateful if you could share the reported activity (max response) for `NC(=O)NNc1ccccc1` .
**Result** -10.9% (inactive)

**Query** // activity (max response) lookup, key: CC(=O)N(CC(O)CN(C(C)=O)c1c(I)c(C(=O)NCC(O)CO)c(I)c(C(=O)NCC(O)CO)c1I)c1c(I)c(C(=O)NCC(O)CO)c(I)c(C(=O)NCC(O)CO)c1I (stereo not given)
**Result** 14.1% (inactive)

**Query** Data request, read-out activity (max response), for `CC1(C)CNc2cc(NC(=O)c3cccnc3NCc3ccncc3)ccc21`
**Result** -22.3% (inactive)

**Query** Given the compound O=C(c1ccccc1)C(O)c1ccccc1 (stereo not given) , what is its reported activity (max response)?
**Result** 11.7% (inactive)

**Query** Value lookup for activity (max response); key = `COc1ccc2c(c1)c1c3n2CCN(C)C3=NCC1`
**Result** 0.0191% (inactive)
